Target: Epidermal Growth Factor Receptor (EGFR), extracellular domain (EGFR-ECD) (Homo sapiens)
Construct: full-length EGFR in DiscoverX PathHunter enzyme-complementation cells, EGF-stimulated
Experiment: cell-based
Parameters: DiscoverX PathHunter EGFR dimerization/activation assay, chemiluminescence
Reported Endpoint: inhibition at 50 µM (%)

Example compounds with recorded inhibition at 50 µM:
[[record]]
structure_notation = "CCc1cnc(Oc2cccc(NC(=O)NC(=O)c3ccccc3)c2)nc1"
observed_measurement = 0

[[record]]
structure_notation = "O=C(O)Cc1ccc(/N=C2/C(=O)Nc3ccccc32)cc1"
observed_measurement = 42

[[record]]
structure_notation = "Nc1cccc(-c2cc(-c3ccccc3)ncn2)c1"
observed_measurement = 4

[[record]]
structure_notation = "O=c1oc2ncnc(Nc3cccc(-c4ccccc4)c3)c2cc1-c1c(Cl)cccc1Cl"
observed_measurement = 40

[[record]]
structure_notation = "CC(=O)Nc1ccc(/C=C2/N=C(c3cccnc3Cl)OC2=O)cc1"
observed_measurement = 37

[[record]]
structure_notation = "O=C(O)Cc1ccc(S(=O)(=O)Nc2ccccc2)cc1"
observed_measurement = 26

[[record]]
structure_notation = "CS(=O)(=O)Nc1ccc(NC(=O)c2ccc3c(c2)C(=O)c2c(NCCN4CCNCC4)ccc(NCCN4CCNCC4)c2C3=O)cc1"
observed_measurement = 34


I = O=C(CN1CCCCC1)Nc1ccc(NC(=O)CN2CCCCC2)c2c1C(=O)c1c(O)ccc(O)c1C2=O
II = O=C(NC(=O)c1ccccc1)Nc1cccc(Oc2ncc(Cl)cn2)c1
Qu. inhibition at 50 µM comparison. Which is larger, I or II ? Your answer should be the label attached to the chosen record.
Ans. I

---

Target: Epidermal Growth Factor Receptor (EGFR), extracellular domain (EGFR-ECD) (Homo sapiens)
Construct: full-length EGFR in DiscoverX PathHunter enzyme-complementation cells, EGF-stimulated
Assay: cell-based
Parameters: DiscoverX PathHunter EGFR dimerization/activation assay, chemiluminescence
Reported Endpoint: inhibition at 10 µM (%)

[[record]]
structure_notation = "COc1ccc2c(C)c(CCC(=O)Nc3ccc(C(=O)O)cc3)c(=O)oc2c1"
reported_endpoint = "inhibition at 10 µM"
observed_measurement = 0


P = Cc1c(C)c2cc3c4c(oc3c(O)c2oc1=O)CCCC4
Q = Nc1cccc(-c2cc(-c3ccc(C(=O)O)cc3)ncn2)c1
R = COc1ccc([N+](=O)[O-])c(C2=NC(=Cc3ccc(NC(C)=O)cc3)C(=O)O2)c1
S = CCOC(=O)c1cc2cnc(O)nc2oc1=O
Qu. Reorder the items by inhibition at 10 µM, least to greatest. Sort the labels as requested; that list is your answer.
Ans. S, R, P, Q
(S: 0%, R: 3%, P: 8%, Q: 22%)

I = O=C1OC(c2ccccc2)=N/C1=C/c1ccc[nH]1
II = COc1ccc(OC)c(NS(=O)(=O)c2ccc(Cl)cc2[N+](=O)[O-])c1
Qu. Higher inhibition at 10 µM: I or II ? Mark your selection by writing its label.
Ans. I
(I: 18%, II: 0%)

---

Target: Epidermal Growth Factor Receptor (EGFR), extracellular domain (EGFR-ECD) (Homo sapiens, UniProt P00533)
Construct: full-length EGFR in DiscoverX PathHunter enzyme-complementation cells, EGF-stimulated
Sequence (P00533 25-1210): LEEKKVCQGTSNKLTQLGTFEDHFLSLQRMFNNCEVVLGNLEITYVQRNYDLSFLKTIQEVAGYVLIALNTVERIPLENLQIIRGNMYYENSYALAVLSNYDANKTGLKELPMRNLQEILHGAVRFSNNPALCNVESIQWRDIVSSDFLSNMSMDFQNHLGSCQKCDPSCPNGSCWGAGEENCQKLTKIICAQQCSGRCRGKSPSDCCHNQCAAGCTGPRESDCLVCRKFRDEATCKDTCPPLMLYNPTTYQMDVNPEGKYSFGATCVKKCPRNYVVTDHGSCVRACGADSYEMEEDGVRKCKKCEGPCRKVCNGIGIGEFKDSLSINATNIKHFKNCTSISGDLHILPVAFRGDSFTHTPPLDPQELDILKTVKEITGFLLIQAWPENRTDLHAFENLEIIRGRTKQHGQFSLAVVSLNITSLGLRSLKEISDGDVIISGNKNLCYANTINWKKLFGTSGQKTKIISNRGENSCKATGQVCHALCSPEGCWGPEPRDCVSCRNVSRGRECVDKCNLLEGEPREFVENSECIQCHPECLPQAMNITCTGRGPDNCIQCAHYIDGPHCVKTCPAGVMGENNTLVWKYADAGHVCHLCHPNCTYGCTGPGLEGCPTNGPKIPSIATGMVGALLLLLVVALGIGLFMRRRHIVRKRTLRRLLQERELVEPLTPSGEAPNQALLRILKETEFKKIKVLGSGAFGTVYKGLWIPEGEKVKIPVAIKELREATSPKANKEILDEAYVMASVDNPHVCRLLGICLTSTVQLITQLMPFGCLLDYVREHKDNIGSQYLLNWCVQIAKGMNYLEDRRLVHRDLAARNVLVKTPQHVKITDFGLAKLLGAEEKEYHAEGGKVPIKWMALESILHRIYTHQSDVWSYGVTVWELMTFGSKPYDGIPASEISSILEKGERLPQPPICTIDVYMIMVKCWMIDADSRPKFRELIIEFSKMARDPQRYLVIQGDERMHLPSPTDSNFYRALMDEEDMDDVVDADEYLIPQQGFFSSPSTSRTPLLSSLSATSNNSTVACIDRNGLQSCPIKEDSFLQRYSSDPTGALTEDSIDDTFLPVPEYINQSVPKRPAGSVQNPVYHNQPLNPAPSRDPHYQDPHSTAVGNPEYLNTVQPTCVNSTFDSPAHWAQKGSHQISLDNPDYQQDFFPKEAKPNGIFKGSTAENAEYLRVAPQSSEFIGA
Assay: cell-based
Design: DiscoverX PathHunter EGFR dimerization/activation assay, chemiluminescence
Reported Endpoint: inhibition at 10 µM (%)

Worked examples follow.
[[record]]
structure_notation = "Cc1c(CC(=O)Nc2ccc(NS(C)(=O)=O)cc2)c(=O)oc2c(C)c3oc4c(c3cc12)CCCC4"
reported_endpoint = "inhibition at 10 µM"
observed_measurement = 40

[[record]]
structure_notation = "CC(=O)Nc1ccc(/C=C2/N=C(c3cccc(C(=O)O)c3)OC2=O)cc1"
reported_endpoint = "inhibition at 10 µM"
observed_measurement = 0

[[record]]
structure_notation = "Brc1cccc(-c2cc(-c3ccccc3)ncn2)c1"
reported_endpoint = "inhibition at 10 µM"
observed_measurement = 0


P = O=[N+]([O-])c1cc(Cl)ccc1S(=O)(=O)N1CCCCC1
Q = COc1ccc(OC)c(/N=C2/C(=O)Nc3ccc(Br)cc32)c1
R = COc1cccc(Nc2nc(O)c3cc(-c4ccccc4)c(=O)oc3n2)c1
Qu. Arrange the 3 entries by inhibition at 10 µM so the values rise. State the ranking by listing the labels in the requested order.
Ans. R, P, Q
(R: 0%, P: 12%, Q: 20%)

1 = ClCc1c2ccccc2c(CCl)c2ccccc12
2 = Cc1ccc([N+](=O)[O-])cc1Nc1nccc(-c2cccnc2)n1
3 = O=C1OC(c2ccccc2)=N/C1=C/c1cnc2ccccc2c1
4 = COc1cc(/C=C2/N=C(c3ccccc3)OC2=O)ccc1OC(C)=O
Qu. Let's sort these by inhibition at 10 µM, smallest first. Go ahead? Give the labels in the order specified.
Ans. 2, 3, 4, 1

1 = N#CCc1c2ccccc2c(CC#N)c2ccccc12
2 = CC(=O)Nc1ccc(C=C2N=C(c3ccc([N+](=O)[O-])cc3O)OC2=O)cc1
Qu. Which shows the larger inhibition at 10 µM value: 1 or 2 ? Returns: label corresponding to the selected item.
Ans. 2
(2: 11%, 1: 0%)
